From: patent US20030088057A1

System: γ-PAK
Sequence (Q29502 249-500 limits assumed): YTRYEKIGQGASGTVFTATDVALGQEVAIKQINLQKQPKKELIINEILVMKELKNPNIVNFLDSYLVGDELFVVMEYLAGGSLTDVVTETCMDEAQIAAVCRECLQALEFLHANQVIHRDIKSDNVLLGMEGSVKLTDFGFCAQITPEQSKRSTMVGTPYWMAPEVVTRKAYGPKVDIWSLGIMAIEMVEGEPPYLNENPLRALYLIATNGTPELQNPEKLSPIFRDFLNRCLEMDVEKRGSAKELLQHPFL
protocol-description: Kinetic parameters (Km, Vmax) for phosphorylation of synthetic peptides by γ-PAK
Type: biochemical, rabbit
No end group written: not given here.
value-type: increase of Vmax compared to AKRASAA (fold)
Form entry: value (fold) — number only.

Observe how each entry below is paired with its result.
substance="AKRASGA (AKRASGA-NH2) [synthetic peptide with an amide C-terminal group]" system=γ-PAK recorded_number=3
substance="AKRESAA (AKRESAA-NH2) [synthetic peptide with an amide C-terminal group]" system=γ-PAK recorded_number=6

Now for a further substance.
Give the reported increase of Vmax compared to AKRASAA for AKRGSAA (AKRGSAA-NH2) [synthetic peptide with an amide C-terminal group] (system: γ-PAK).
6

###

Catalogue of substances with associated increase of Km compared to AKRASAA
System: γ-PAK
protocol-description: Kinetic parameters (Km, Vmax) for phosphorylation of synthetic peptides by γ-PAK
Assay type: biochemical, rabbit
No end group written: not given here.
Form entry: value (fold) — number only.

Observe how each entry below is paired with its result.
substance="EKRASAA (EKRASAA-NH2) [synthetic peptide with an amide C-terminal group]" recorded_number=2
substance="AKRGSAA (AKRGSAA-NH2) [synthetic peptide with an amide C-terminal group]" recorded_number=7

Now for a further substance.
Form field: reported increase of Km compared to AKRASAA of AKRASGA (AKRASGA-NH2) [synthetic peptide with an amide C-terminal group]
4

###

Catalogue of substances with associated Km
Tested on: γ-PAK
protocol-description: Kinetic parameters (Km, Vmax) for phosphorylation of synthetic peptides by γ-PAK
Format: biochemical, rabbit
cond: Table 3, influence of acidic amino acids; read-out: Km
Protocol: Assays with peptides (I mM) were carried out with γ-PAK (1.6-5.6 units) in 25 μL reaction mixtures incubated for 30 min at 30° C. under conditions described above, except that 0.4 mg/mL of bovine serum albumin was added and the specific activity of ATP was 300-2000 cpm/pmol. […]
No end group written: not given here.
Answer with the figure and its unit, nothing else.

substance="AKRASAA (AKRASAA-NH2) [synthetic peptide with an amide C-terminal group]" value_type=Km result="460 µM"

Form field: reported Km of AKRASEA (AKRASEA-NH2) [synthetic peptide with an amide C-terminal group]
1420 µM

Form field: reported Km of EKRASAA (EKRASAA-NH2) [synthetic peptide with an amide C-terminal group]
890 µM

Form field: reported Km of AKRESAA (AKRESAA-NH2) [synthetic peptide with an amide C-terminal group]
1350 µM

###

Catalogue of substances with associated rel rate (%)
Tested on: γ-PAK
protocol-description: Rates of phosphorylation of synthetic peptides by γ-PAK
Type: biochemical, rabbit
cond: Cdc42(GTPγS)-activated γ-PAK; peptide 1 mM; KKRKSAA = 100
No end group written: not given here.

Give the reported rel rate (%) for AAAASKR (AAAASKR-NH2) [synthetic peptide with an amide C-terminal group] (system: γ-PAK).
0%

###

System: PKC
protocol-description: Rates of phosphorylation of synthetic peptides by PKC
Type: biochemical, bovine
cond: PKC; AKRASAA taken as 100%
No end group written: not given here.
value-type: 32P incorporated, % (%)
Form entry: value (%) — number only.

Observe how each entry below is paired with its result.
substance="ARRASAA (ARRASAA-NH2) [synthetic peptide with an amide C-terminal group]" system=PKC value_type="32P incorporated, %" recorded_number=570
substance="AAAASKR (AAAASKR-NH2) [synthetic peptide with an amide C-terminal group]" system=PKC value_type="32P incorporated, %" recorded_number=403
substance="EKRASAA (EKRASAA-NH2) [synthetic peptide with an amide C-terminal group]" system=PKC value_type="32P incorporated, %" recorded_number=3
substance="ARKASAA (ARKASAA-NH2) [synthetic peptide with an amide C-terminal group]" system=PKC value_type="32P incorporated, %" recorded_number=173
substance="AKRASEA (AKRASEA-NH2) [synthetic peptide with an amide C-terminal group]" system=PKC value_type="32P incorporated, %" recorded_number=6
substance="PKRASAA (PKRASAA-NH2) [synthetic peptide with an amide C-terminal group]" system=PKC value_type="32P incorporated, %" recorded_number=264

Form field: reported 32P incorporated, % of AKRASAA (AKRASAA-NH2) [synthetic peptide with an amide C-terminal group]
100

Form field: reported 32P incorporated, % of AKRESAA (AKRESAA-NH2) [synthetic peptide with an amide C-terminal group]
12
